# Tested on: SNB-19 CNS
# assay.method.text: NCI-60 one-dose screen, 48 h (100 = growth as untreated, 0 = no growth, -100 = all killed)
# condition.notes: 10 µM unless noted
# Experimental: Growth inhibition of the SNB-19 human tumor cell line is measured as a screen for anti-cancer activity. Cells are grown in 96 well plates and exposed to the test compound for 48 hours. Compounds are tested at a single concentration, which is 10^-5 M for most compounds. The reported endpoint is percent growth (GI% or GIPRCNT), where numbers from 0 - 100% represent growth inhibition, and numbers from -100% - 0 represent cell death. For example, a value of 40 represents 60% growth inhibition. […]
About 83,000 compounds went through this panel and 20% of them were active in at least one assay; those are over-represented in the sample as a whole.
observation.type: growth (%)
Value expressed in %; do not type the unit.

Form: Entry = `CCC[C@H](N[C@@H](C)C(=O)N1[C@H](C(=O)O)C[C@@H]2CCCC[C@@H]21)C(=O)OCC` | System = SNB-19 CNS | growth = ____
104

Form: Entry = `c1coc([C@@H]2C[C@@H]3Cc4ccc5ccccc5c4N2O3)c1` | System = SNB-19 CNS | growth = ____
104

Form: Entry = `CCOC(Cc1c(N)[nH]c(=S)[nH]c1=O)OCC` | System = SNB-19 CNS | growth = ____
106

Form: Entry = `COc1ccc2c(c1)[nH]c(=O)c1c3cc(OC)c(OC)cc3cn21` | System = SNB-19 CNS | growth = ____
31.3

Form: Entry = `COc1ccc(/C=N/NC(=O)c2ccc(S(C)(=O)=O)cc2)cc1OC` | System = SNB-19 CNS | growth = ____
97.3

Form: Entry = `COC(=O)[C@]12CC[C@@H](C)[C@H](C)[C@@H]1C1=CC[C@@H]3[C@@]4(C)C[C@@H](OC(=O)c5ccco5)[C@H](O)[C@@](C)(CO)[C@@H]4[C@H](O)C[C@@]3(C)[C@]1(C)CC2` | System = SNB-19 CNS | growth = ____
-71

Form: Entry = CCn1c2c(c3ccccc31)SC1c3cccn3CCN1C2=S (stereo unspecified) | System = SNB-19 CNS | growth = ____
95.8

Form: Entry = `Cn1cc(-c2csc(-c3c[nH]c4ncccc34)n2)c2cc(Br)cnc21` | System = SNB-19 CNS | growth = ____
50.5

Form: Entry = `COc1cc(NC(=O)c2cc3ccccc3cc2O)c(OC)cc1Cl` | System = SNB-19 CNS | growth = ____
16

Form: Entry = `Nc1ccccc1-c1ccc([N+](=O)[O-])cc1` | System = SNB-19 CNS | growth = ____
67.3

Form: Entry = CCOC(=O)C1C(=O)OC2CCCCC21 (stereo unspecified) | System = SNB-19 CNS | growth = ____
97.6

Form: Entry = `CN(C)c1nc(N)nc(Cn2c(-c3nonc3N)nc3ccccc32)n1` | System = SNB-19 CNS | growth = ____
91.8

Form: Entry = `C/C(=N/N=C(N)N)c1ccc(N)cc1` | System = SNB-19 CNS | growth = ____
96.3

Form: Entry = `S=C1SCN(Cc2ccccc2)CN1Cc1ccco1` | System = SNB-19 CNS | growth = ____
101

Form: Entry = `Cn1c(=O)c2c(nc(Br)n2CCC(=O)Nc2ccc(F)cc2)n(C)c1=O` | System = SNB-19 CNS | growth = ____
103

Form: Entry = `O=C(Nc1cccc(C(F)(F)F)c1)Nc1ccc(OCc2nnc(-c3ccc(Cl)cc3)o2)c(F)c1` | System = SNB-19 CNS | growth = ____
69.9

Form: Entry = O=C1CCCN1C1CCN(Cc2cc3ccccc3[nH]c2=O)c2ccccc21 (stereo unspecified) | System = SNB-19 CNS | growth = ____
96.8

Form: Entry = C=C(C)[C@H]1CC/C(C)=C/CC[C@]2(C)O[C@H]2CC/C(C=O)=C\C1O (stereo partly specified) | System = SNB-19 CNS | growth = ____
112

Form: Entry = COc1cc(C2C=C(c3ccc(C)cc3)Nc3nc(SC)[nH]c(=O)c32)ccc1Oc1ccnc2cc(Cl)ccc12 (stereo unspecified) | System = SNB-19 CNS | growth = ____
71.7

Form: Entry = CC(=O)Oc1c(C)c(OC(C)=O)c2c(c1C(C)=O)OC1CC(=O)C(C(C)=O)=C(O)C21C (stereo unspecified) | System = SNB-19 CNS | growth = ____
95.4

Form: Entry = CSc1ccc2c(c1)N(CCC1CCCCN1C)c1ccccc1S2 (stereo unspecified) | System = SNB-19 CNS | growth = ____
75.3

Where do these numbers come from? They come from PubChem BioAssay (NCI).
